Every entry's value here was drawn from patent US20040037843A1.

Reported pIC50 values are given for each entry in this list.
Target: HLA-A*0201 (Homo sapiens, UniProt P04439, D140Y/D185E/D98H/E176V/E277Q/G131W/G231S/I119V/I121R/I166T/I218V/L300P/L318F/N151K/N90K/P208A/P217A/Q86G/Q94H/R138H/R169H/T345S)
Assay: HLA class I binding assay, purified HLA, inhibition of 125I-labelled probe peptide
Conditions: A*[…], A2 supermotif cross-reactive binding data
pIC50: −log10 of the molar value.

molecule	pIC50
CC(C)C[C@H](NC(=O)[C@H](CCC(=O)O)NC(=O)[C@H](CCCNC(=N)N)NC(=O)[C@H](CC(C)C)NC(=O)[C@@H](N)CCCCN)C(=O)N[C@@H](CO)C(=O)N[C@@H](CCC(=O)O)C(=O)N[C@@H](CC(C)C)C(=O)N[C@@H](CO)C(=O)N[C@H](C(=O)O)C(C)C [Peptide 63.0048]	6.58
CC[C@H](C)[C@H](NC(=O)[C@@H]1CCCN1C(=O)[C@H](CCC(N)=O)NC(=O)[C@H](Cc1c[nH]c2ccccc12)NC(=O)[C@H](CC(C)C)NC(=O)[C@H](CC(C)C)NC(=O)[C@H](CC(C)C)NC(=O)[C@@H]1CCCN1)C(=O)N1CCC[C@H]1C(=O)N[C@H](C(=O)O)C(C)C [Peptide 63.0042]	6.62
CSCC[C@H](NC(=O)[C@H](Cc1ccccc1)NC(=O)[C@H](CCCCN)NC(=O)[C@@H](NC(=O)[C@@H](NC(=O)[C@@H](N)CCCCN)C(C)C)[C@@H](C)O)C(=O)N[C@@H](CC(C)C)C(=O)N[C@@H](CS)C(=O)N[C@H](C(=O)O)C(C)C [Peptide 60.0220]	7.16
CC(C)C[C@H](NC(=O)[C@H](CO)NC(=O)[C@H](CC(C)C)NC(=O)[C@H](CO)NC(=O)[C@H](C)NC(=O)[C@H](C)NC(=O)[C@H](CCCNC(=N)N)NC(=O)[C@H](C)NC(=O)[C@H](CC(C)C)NC(=O)[C@H](CC(C)C)NC(=O)[C@@H](N)CC(C)C)C(=O)O [Peptide 63.0136]	8.09

###

Reported IC50 values are given for each entry in this list.
Molecular target: HLA-A*0203 (Homo sapiens, UniProt P04439, A173T/D140Y/D185E/D98H/E277Q/G131W/G231S/I119V/I121R/I166T/I218V/L180W/L300P/L318F/N151K/N90K/P208A/P217A/Q86G/Q94H/R138H/R169H/T345S)
Assay: HLA class I binding assay, purified HLA, inhibition of 125I-labelled probe peptide
Conditions: A*[…], A2 supermotif cross-reactive binding data

compound	IC50 [nM]
CC(C)C[C@H](NC(=O)[C@@H](NC(=O)[C@@H](NC(=O)[C@H](Cc1ccccc1)NC(=O)[C@H](CCCCN)NC(=O)[C@H](CC(C)C)NC(=O)[C@H](CCC(=O)O)NC(=O)[C@H](CCCCN)NC(=O)[C@H](C)NC(=O)[C@H](CC(C)C)NC(=O)[C@@H](N)C(C)C)C(C)C)[C@@H](C)O)C(=O)O [Peptide 63.0142]	21
CC[C@H](C)[C@H](NC(=O)[C@H](Cc1ccccc1)NC(=O)[C@H](C)NC(=O)[C@H](CCCNC(=N)N)NC(=O)[C@H](CCC(=O)O)NC(=O)[C@H](CC(C)C)NC(=O)[C@H](Cc1ccccc1)NC(=O)[C@H](CCSC)NC(=O)[C@H](CC(C)C)NC(=O)[C@@H](N)CCC(N)=O)C(=O)O [Peptide 1126.16]	91
